# Lookup of reported AC50 keyed by entry
# Test system: TFEB
# protocol: TFEB nuclear translocation assay, HeLa wt cells
# Assay type: cell-based
# condition-summary: Homo sapiens, HeLa, 2 h, 2 hrs compound treatment, Table 1 does not say HeLa wt or TRPML1 KO

{"compound": "CC(c1cccc(F)c1N1CCC(CN2C[C@H]3C[C@@H](C2)O3)CC1)S(=O)(=O)c1ccc(S(=O)(=O)N(C)C)cc1 (single isomer, unassigned) [Compound A-848]", "AC50": "≤ 2 µM"}
{"compound": "CS(=O)(=O)c1ccc(S(=O)(=O)Nc2cc(Cl)ccc2N2CCOCC2)cc1", "AC50": "≥ 10 µM"}
{"compound": "CN(C)S(=O)(=O)c1ccc(S(=O)(=O)Nc2nc(C3CCN(c4ccc(Cl)cc4F)CC3)cn2C)cc1", "AC50": "≥ 10 µM"}
{"compound": "CC1(C)CC2(CCN(c3ccccc3NS(=O)(=O)c3ccc(OC(F)(F)F)cc3)CC2)CO1", "AC50": "2.01 to 8 µM"}

Values were extracted from patent US20230104936A1.
